All figures here come from ChEMBL document CHEMBL1126731.

System: Human immunodeficiency virus 1
TEST_DESCRIPTION: Cytotoxicity against HIV-1 (HTLV-IIIB) in MT-4 cells
Format: functional
CONDITION_DESCRIPTION: Human immunodeficiency virus 1, MT4
Listed next: entries and their corresponding CC50.
Just the number in µM, nothing appended.

COMPOUND	UNIT_ABBREV	CC50
O=S(=O)(O)c1cccc2ccc(OS(=O)(=O)c3ccc(-c4ccc(S(=O)(=O)Oc5ccc6cccc(S(=O)(=O)O)c6c5)cc4)cc3)cc12	µM	100
Cc1ccc(C(=O)Nc2ccc(S(=O)(=O)O)c3cc(S(=O)(=O)O)cc(S(=O)(=O)O)c23)cc1NC(=O)c1cccc(NC(=O)Nc2cccc(C(=O)Nc3cc(C(=O)Nc4ccc(S(=O)(=O)O)c5cc(S(=O)(=O)O)cc(S(=O)(=O)O)c45)ccc3C)c2)c1 [SURAMIN HEXASODIUM]	µM	250

Here is the next item to consider.
Query string: Would you mind telling me what CC50 value was observed for "O=C(O)c1cc(NS(=O)(=O)c2ccc(-c3ccc(S(=O)(=O)Nc4cc(C(=O)O)c(O)c(S(=O)(=O)O)c4)cc3)cc2)cc(S(=O)(=O)O)c1O" ?
Result string: 247

###

Test system: Human immunodeficiency virus 1
TEST_DESCRIPTION: Cytotoxicity against HIV-1 (HTLV-IIIB) in MT-4 cells
Type: functional
CONDITION_DESCRIPTION: Human immunodeficiency virus 1, MT4
OBSERVATION_TYPE: CC50

O=C(Nc1ccc(S(=O)(=O)O)c2cccc(S(=O)(=O)O)c12)c1ccc(C(=O)Nc2ccc(S(=O)(=O)O)c3cccc(S(=O)(=O)O)c23)cc1 > 500 µM
O=C(CCCCCCC(=O)Nc1ccc(S(=O)(=O)O)c2cccc(S(=O)(=O)O)c12)Nc1ccc(S(=O)(=O)O)c2cccc(S(=O)(=O)O)c12 > 500 µM

Here is the next item to consider.
Query string: Would you mind telling me what CC50 value was observed for "O=C(CCCCCCCCC(=O)Nc1ccc(S(=O)(=O)O)c2cccc(S(=O)(=O)O)c12)Nc1ccc(S(=O)(=O)O)c2cccc(S(=O)(=O)O)c12" ?
Result string: > 500 µM

###

Listed next: entries and their corresponding CC50.
Tested on: Human immunodeficiency virus 1
TEST_DESCRIPTION: Cytotoxicity against HIV-1 (HTLV-IIIB) in MT-4 cells
Format: functional
CONDITION_DESCRIPTION: Human immunodeficiency virus 1, MT4

Solved cases below.
O=S(=O)(O)c1ccc2cc(OS(=O)(=O)c3ccc(-c4ccc(S(=O)(=O)Oc5cc6ccc(S(=O)(=O)O)cc6cc5S(=O)(=O)O)cc4)cc3)c(S(=O)(=O)O)cc2c1 > 500 µM
O=C(CCCCCCCCCCC(=O)Nc1cc(S(=O)(=O)O)cc2cc(S(=O)(=O)O)cc(O)c12)Nc1cc(S(=O)(=O)O)cc2cc(S(=O)(=O)O)cc(O)c12 430 µM
O=C(CCC(=O)Nc1ccc(S(=O)(=O)O)c2ccccc12)Nc1ccc(S(=O)(=O)O)c2ccccc12 > 500 µM
Cc1cc(C)c(S(=O)(=O)Nc2cc(C(=O)O)c(O)c(S(=O)(=O)O)c2)c(C)c1S(=O)(=O)Nc1cc(C(=O)O)c(O)c(S(=O)(=O)O)c1 > 500 µM

Query string: Would you mind telling me what CC50 value was observed for "O=S(=O)(O)c1cc(S(=O)(=O)O)c2cc(OS(=O)(=O)c3ccc(-c4ccc(S(=O)(=O)Oc5ccc6cc(S(=O)(=O)O)cc(S(=O)(=O)O)c6c5)cc4)cc3)ccc2c1" ?
Result string: 224 µM

Query string: Would you mind telling me what CC50 value was observed for "O=C(CCCCCCC(=O)Nc1cc(S(=O)(=O)O)cc2cc(S(=O)(=O)O)cc(O)c12)Nc1cc(S(=O)(=O)O)cc2cc(S(=O)(=O)O)cc(O)c12" ?
Result string: 360 µM

Query string: Would you mind telling me what CC50 value was observed for "O=C(O)c1cc(NS(=O)(=O)c2cc(S(=O)(=O)Nc3cc(C(=O)O)c(O)c(S(=O)(=O)O)c3)cc(S(=O)(=O)Nc3cc(C(=O)O)c(O)c(S(=O)(=O)O)c3)c2)cc(S(=O)(=O)O)c1O" ?
Result string: > 500 µM

Query string: Would you mind telling me what CC50 value was observed for "O=S(=O)(O)c1cc(O)c2c(NS(=O)(=O)c3ccc(-c4ccc(S(=O)(=O)Nc5cc(S(=O)(=O)O)cc6cc(S(=O)(=O)O)cc(O)c56)cc4)cc3)cc(S(=O)(=O)O)cc2c1" ?
Result string: 320 µM

Query string: Would you mind telling me what CC50 value was observed for "O=S(=O)(O)c1cccc2ccc(OS(=O)(=O)c3cccc4c(S(=O)(=O)Oc5ccc6cccc(S(=O)(=O)O)c6c5)cccc34)cc12" ?
Result string: 144 µM

Query string: Would you mind telling me what CC50 value was observed for "O=C(CCCCCCC(=O)Nc1ccc(S(=O)(=O)O)c2ccccc12)Nc1ccc(S(=O)(=O)O)c2ccccc12" ?
Result string: > 500 µM
